assayed_system: UniProt:P07550
Sequence (P07550 whole entry, looked up): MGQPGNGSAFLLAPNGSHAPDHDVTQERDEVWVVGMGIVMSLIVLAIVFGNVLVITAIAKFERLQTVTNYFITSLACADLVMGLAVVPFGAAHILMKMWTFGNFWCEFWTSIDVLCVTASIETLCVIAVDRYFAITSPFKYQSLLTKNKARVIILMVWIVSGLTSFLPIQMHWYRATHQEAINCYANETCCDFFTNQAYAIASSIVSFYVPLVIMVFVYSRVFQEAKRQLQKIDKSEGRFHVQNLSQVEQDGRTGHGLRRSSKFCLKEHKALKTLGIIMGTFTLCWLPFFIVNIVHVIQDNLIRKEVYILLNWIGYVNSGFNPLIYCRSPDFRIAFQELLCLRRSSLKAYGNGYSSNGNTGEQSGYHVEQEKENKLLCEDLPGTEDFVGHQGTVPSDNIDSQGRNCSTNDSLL
test_context: CHO
Description: Intrinsic activity against BETA2-AR expressed in CHO cells in cAMP-RIA assay
parameter: IA
Just the number.

Example entries and their recorded answers appear below.
COc1c(I)cc(CC2NCCc3c2ccc(O)c3I)cc1I (centres undefined)    65
COc1c(I)cc(CC2NCCc3cc(O)c(I)cc32)cc1I (centres undefined)    4
COc1cc(C[C@@H]2NCCc3cc(O)c(O)cc32)cc(OC)c1OC    95

QUERY: Give the reported IA for this molecule. COc1c(I)cc(CC2NCCc3cc(O)ccc32)cc1I (centres undefined)
RESULT: 44
